molecular target: Pim-2 (Homo sapiens (Human), UniProt Q9P1W9); assay: Pim enzyme assay (HTRF, 96-well), Pim-2; assay type: biochemical; conditions: full length recombinant Pim-2, biotinylated-BAD (S112) peptide, 10-point curve, 45 min RT, read-out: Pim-2 IC50 IP
Sequence (Q9P1W9 whole entry): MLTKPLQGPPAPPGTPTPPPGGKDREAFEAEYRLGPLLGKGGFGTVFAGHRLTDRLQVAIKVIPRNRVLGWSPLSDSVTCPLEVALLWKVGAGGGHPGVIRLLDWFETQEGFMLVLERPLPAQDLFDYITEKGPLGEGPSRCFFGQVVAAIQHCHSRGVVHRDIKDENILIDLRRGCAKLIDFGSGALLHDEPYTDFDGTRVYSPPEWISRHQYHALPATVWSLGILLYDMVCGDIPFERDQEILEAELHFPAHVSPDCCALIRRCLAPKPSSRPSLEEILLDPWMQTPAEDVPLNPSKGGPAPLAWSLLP
Hi there, I'd appreciate the recorded IC50 for every entry that follows.
Numbers only, in nM.

Cc1cc2cccc(-c3cc4c([nH]3)CCNC4=O)c2nc1Nc1ccccc1 [Example 105]: 1.2
O=C1NCCc2[nH]c(-c3cccc4cnc(Oc5ccccc5)nc34)cc21 [Example 236, 2,2,2-trifluoroacetate]: 40.2
Cc1nc2cccc(-c3cc4c([nH]3)CCNC4=O)c2nc1Nc1ccccn1 [Example 190]: 17.6

Lookup: Dear colleague, please send me the reported IC50 for CC1Cc2[nH]c(-c3cccc4ccc(Nc5ccccc5)nc34)cc2C(=O)N1 (single isomer, unassigned) [Example 34] when you can.
Found: 73.3
